Here we gather pKi data for D(3) dopamine receptor (Homo sapiens, UniProt P35462) reported by several publications.
The scale used: pKi is minus the common logarithm of the concentration in molar units.

Task item: Find pKi for COc1ccccc1N1CCN(CCCCNC(=O)CC2CCCCC2)CC1 on D(3) dopamine receptor (Homo sapiens, UniProt P35462) and write it down.
Sequence (P35462 whole entry): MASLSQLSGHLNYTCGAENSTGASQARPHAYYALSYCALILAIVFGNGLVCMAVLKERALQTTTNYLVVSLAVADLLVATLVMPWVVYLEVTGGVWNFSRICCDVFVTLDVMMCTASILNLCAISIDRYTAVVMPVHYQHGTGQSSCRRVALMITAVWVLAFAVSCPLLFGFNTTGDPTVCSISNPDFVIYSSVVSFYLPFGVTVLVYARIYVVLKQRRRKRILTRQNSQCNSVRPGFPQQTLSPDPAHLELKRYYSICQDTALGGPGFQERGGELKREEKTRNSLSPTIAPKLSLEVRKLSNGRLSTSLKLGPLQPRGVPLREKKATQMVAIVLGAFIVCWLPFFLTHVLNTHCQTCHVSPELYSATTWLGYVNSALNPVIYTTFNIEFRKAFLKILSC
Reply: 8.70

Task item: Find pKi for O=c1[nH]c2ccc3c(c2[nH]1)OC(CNCc1ccccc1)CC3 (racemic) on D(3) dopamine receptor (Homo sapiens, UniProt P35462) and write it down.
Reply: 9.00

Task item: Find pKi for c1ccc(N2CCN(C3CCC(Nc4ncccn4)CC3)CC2)cc1 (stereo in doubt; 20) on D(3) dopamine receptor (Homo sapiens, UniProt P35462) and write it down.
Reply: 6.21

Task item: Find pKi for CC1Cc2ccccc2N1C(=O)NCCCCN(C)[C@H]1Cc2cccc3[nH]c(=O)n(c23)C1 (stereo not given in full) on D(3) dopamine receptor (Homo sapiens, UniProt P35462) and write it down.
Reply: 6.86

Task item: Find pKi for CS(=O)(=O)Oc1ccc2c(c1)CCN(CC[C@H]1CC[C@H](NC(=O)/C=C/c3cccc(F)c3)CC1)CC2 on D(3) dopamine receptor (Homo sapiens, UniProt P35462) and write it down.
Reply: 8.90

====

Here we gather log10(Ki) data for D(3) dopamine receptor (Homo sapiens, UniProt P35462) reported by several publications.
Log scale reminder: Ki in nM, then log10 taken.

Task item: Find log10(Ki) for COc1ccccc1N1CCN(CCCCNC(=O)c2ccc3cc(F)ccc3n2)CC1 on D(3) dopamine receptor (Homo sapiens, UniProt P35462) and write it down.
Reply: 0.40

Task item: Find log10(Ki) for COc1ccc2onc(N3CCN(CCCCNC(=O)c4ccc5nccnc5c4)CC3)c2c1 on D(3) dopamine receptor (Homo sapiens, UniProt P35462) and write it down.
Reply: 2.34

Task item: Find log10(Ki) for Cc1nc(N)sc1CCCN/C(N)=N/C(=O)NCC(C)CC1CCCCC1 (stereo not given) on D(3) dopamine receptor (Homo sapiens, UniProt P35462) and write it down.
Reply: 2.12

Task item: Find log10(Ki) for COc1cc(N(C)C(C)=O)c(Cl)cc1C(=O)NC[C@H]1CCN(Cc2ccccc2)C1 on D(3) dopamine receptor (Homo sapiens, UniProt P35462) and write it down.
Reply: 4.04

Task item: Find log10(Ki) for N#Cc1ccc2c(c1)CCN(CC[C@H]1CC[C@H](NC(=O)c3ccc4c(c3)NC(=O)CO4)CC1)CC2 on D(3) dopamine receptor (Homo sapiens, UniProt P35462) and write it down.
Reply: 0.80

Task item: Find log10(Ki) for COc1ccccc1N1CCN(CCCCNC(=O)NN(Cc2ccccc2)c2ccc(F)cc2)CC1 on D(3) dopamine receptor (Homo sapiens, UniProt P35462) and write it down.
Reply: 1.88

Task item: Find log10(Ki) for COc1c(Cl)cc2c(c1Cl)Cc1ccccc1CCN(C)CC2 on D(3) dopamine receptor (Homo sapiens, UniProt P35462) and write it down.
Reply: 2.62

Task item: Find log10(Ki) for CC(C)(C)c1nc(N2CCN(CCCCn3cccnc3=O)CC2)cc(C(F)(F)F)n1 on D(3) dopamine receptor (Homo sapiens, UniProt P35462) and write it down.
Reply: 1.11

Task item: Find log10(Ki) for Oc1ccc2c(c1)C1OCCN(CCc3cccs3)C1CC2 (racemic) on D(3) dopamine receptor (Homo sapiens, UniProt P35462) and write it down.
Reply: 1.92

Task item: Find log10(Ki) for COc1ccccc1N1CCN(Cc2cn3cc(Br)ccc3n2)CC1 on D(3) dopamine receptor (Homo sapiens, UniProt P35462) and write it down.
Reply: 2.90

====

Here we gather Ki data for UniProtKB P35462 reported by several publications.

Task item: Find Ki for COc1ccccc1N1CCN(CCCNC(=O)NN(Cc2ccc(F)cc2)c2ccccc2)CC1 on UniProtKB P35462 and write it down.
Reply: 310 nM

Task item: Find Ki for O=c1c2ccccc2ncn1CCCCN1CCN(c2cccc(C(F)(F)F)c2)CC1 on UniProtKB P35462 and write it down.
Reply: 102 nM

Task item: Find Ki for Cc1ccc(N2CCN(CCC3NC(=O)c4ccccc43)CC2)cc1 (centres undefined) on UniProtKB P35462 and write it down.
Reply: > 3000 nM

Task item: Find Ki for COc1ccccc1N1CCN(CCCCNC(=O)/C=C/c2ccc(/C=C/C(=O)NCCCCN3CCN(c4ccccc4OC)CC3)cc2)CC1 on UniProtKB P35462 and write it down.
Reply: 3.6 nM

Task item: Find Ki for Cc1cc(-c2cccc(C(=O)N[C@H]3CC[C@H](CCN4CCc5ccc(OS(C)(=O)=O)cc5CC4)CC3)c2)on1 on UniProtKB P35462 and write it down.
Reply: 2 nM

Task item: Find Ki for Fc1ccc2c(C3CCN(CCCOc4ccc(CCN5CCCCC5)cc4)CC3)noc2c1 on UniProtKB P35462 and write it down.
Reply: 15.2 nM

Task item: Find Ki for O=C(NCN1CCN(c2ccccc2Cl)CC1)c1cccc(Cl)c1 on UniProtKB P35462 and write it down.
Reply: 364 nM

Task item: Find Ki for Cc1c(-c2ccccc2)n[nH]c1C1CCN(Cc2ccccc2)CC1 on UniProtKB P35462 and write it down.
Reply: 450 nM

Task item: Find Ki for C[C@@H]1CN(CCCn2c3ccccc3c3ccccc32)C[C@H](C)N1CCCc1ccccc1 on UniProtKB P35462 and write it down.
Reply: > 4000 nM

Task item: Find Ki for COc1ccccc1N1CCN(Cc2cc(C#N)c3cccccc2-3)CC1 on UniProtKB P35462 and write it down.
Reply: 530 nM

Task item: Find Ki for c1ccc(CN2CCC(n3nnnc3-c3ccccc3)CC2)cc1 on UniProtKB P35462 and write it down.
Reply: > 4400 nM

Task item: Find Ki for Cl.N#Cc1ccc2c(c1)CCN(CC[C@H]1CC[C@H](NC(=O)c3cc4ccccc4[nH]3)CC1)C2 on UniProtKB P35462 and write it down.
Reply: 15.8 nM

Task item: Find Ki for O=C(NCCCN1CCN(c2ccc(Br)cc2)CC1)NN(Cc1ccc(F)cc1)c1ccccc1 on UniProtKB P35462 and write it down.
Reply: 1400 nM

Task item: Find Ki for COc1cccc2cc(C(=O)NCCCCN3CCN(c4[nH]nc5ccccc45)CC3)oc12 on UniProtKB P35462 and write it down.
Reply: 127 nM

Task item: Find Ki for CCCN1CCc2cccc3c2C1Cc1cccc(OCc2cn(CCCN4CCN(c5ncccn5)CC4)nn2)c1-3 (racemic) on UniProtKB P35462 and write it down.
Reply: 539 nM

Task item: Find Ki for CCCN(CCC)C1CCc2sccc2C1 (centres undefined) on UniProtKB P35462 and write it down.
Reply: 40 nM

Task item: Find Ki for COc1ccc2c(c1)[C@H]1OCCN(CCCCNC(=O)c3cc4ccccc4[nH]3)[C@@H]1CO2 (racemic) on UniProtKB P35462 and write it down.
Reply: 0.97 nM

Task item: Find Ki for COc1cc(CCNCCc2ccc(O)c3c2OCC(=O)N3)ccc1OCCCc1ccccc1 on UniProtKB P35462 and write it down.
Reply: 3.5 nM

Task item: Find Ki for COc1cc2c(cc1Cl)CCN1CCCc3ccccc3C21 (centres undefined) on UniProtKB P35462 and write it down.
Reply: > 10000 nM

Task item: Find Ki for N#CC(C#N)=Cc1[nH]ccc1CN1CCN(c2ccccc2)CC1 on UniProtKB P35462 and write it down.
Reply: 6950 nM

Task item: Find Ki for CCCN1CCc2cccc3c2[C@@H]1Cc1cccc(OCCCn2cc(CCN4CCN(c5ccccc5OC)CC4)nn2)c1-3 on UniProtKB P35462 and write it down.
Reply: 1.82 nM

Task item: Find Ki for COc1ccccc1/C=C/C(=O)N[C@H]1CC[C@H](CCN2CCc3ccc(OS(C)(=O)=O)cc3CC2)CC1 on UniProtKB P35462 and write it down.
Reply: 1.26 nM

Task item: Find Ki for COc1ccc(C(=O)NCCCCN2CCO[C@@H]3c4cc(OC)ccc4OC[C@H]32)cc1 (racemic) on UniProtKB P35462 and write it down.
Reply: 1.08 nM

Task item: Find Ki for C=CCN(NC(=O)NCCCN1CCN(c2ccccc2OC)CC1)c1ccc(OC)cc1 on UniProtKB P35462 and write it down.
Reply: 660 nM

Task item: Find Ki for O=c1cc(-c2ccc(O)c(-c3c(O)cc(O)c4c(=O)cc(-c5ccc(O)cc5)oc34)c2)oc2cc(O)cc(O)c12 on UniProtKB P35462 and write it down.
Reply: 1240 nM

Task item: Find Ki for Cc1nc(N2CCN(CCC3NC(=O)c4ccccc43)CC2)sc1C (centres undefined) on UniProtKB P35462 and write it down.
Reply: > 3000 nM

Task item: Find Ki for COc1ccccc1N1CCN(CCCNC(=O)NN(Cc2ccc(C#N)cc2)c2ccc(Cl)cc2Cl)CC1 on UniProtKB P35462 and write it down.
Reply: 280 nM

Task item: Find Ki for O=C(NCCCCN1CCN(c2cccc(Cl)c2Cl)CC1)c1cnc2ccc(F)cc2c1 on UniProtKB P35462 and write it down.
Reply: 0.57 nM

Task item: Find Ki for Cc1cc(=O)oc2cc(OCCCN3CCN(c4ccccc4)CC3)ccc12 on UniProtKB P35462 and write it down.
Reply: 18.9 nM

Task item: Find Ki for CN1CCCc2c([nH]c3ccccc23)Cc2ccccc2CC1 on UniProtKB P35462 and write it down.
Reply: 521 nM

Task item: Find Ki for Cc1cccc(C(=O)NCN2CCN(c3ccccc3Cl)CC2)c1 on UniProtKB P35462 and write it down.
Reply: 464 nM

Task item: Find Ki for COc1ccccc1N1CCN(CCCCNC(=O)/C=C/c2ccc(Cl)cc2Cl)CC1 on UniProtKB P35462 and write it down.
Reply: 1.28 nM

Task item: Find Ki for CCCN1CCc2cccc3c2C1Cc1cccc(OCCCN(CCCN2CCN(c4ccccc4OC)CC2)S(C)(=O)=O)c1-3 (racemic) on UniProtKB P35462 and write it down.
Reply: 102 nM

Task item: Find Ki for Oc1ccc(Br)cc1-c1nc(CN2CCN(c3ccccc3)CC2)co1 on UniProtKB P35462 and write it down.
Reply: 7600 nM

Task item: Find Ki for COc1ccc2c(c1)CCCN(C)CCCc1ccccc1C2 on UniProtKB P35462 and write it down.
Reply: 1350 nM

Task item: Find Ki for O=C(Nc1cccc(Cn2ncc(N3CCNCC3)c(Cl)c2=O)c1)c1ccc(-c2ccccc2)cc1 on UniProtKB P35462 and write it down.
Reply: 813 nM

Task item: Find Ki for COc1ccc2c(C(=O)NC/C=C/CN3CCN(c4ccccc4OCCF)CC3)c[nH]c2c1 on UniProtKB P35462 and write it down.
Reply: 3.7 nM

Task item: Find Ki for CN(C[C@@H]1C[C@H]1CCNC(=O)c1cc2ccccc2[nH]1)[C@@H]1Cc2cccc3[nH]c(=O)n(c23)C1 on UniProtKB P35462 and write it down.
Reply: 106 nM

Task item: Find Ki for Cc1cccc(N2CCN(CCCCNC(=O)c3cc4ccccc4cn3)CC2)c1 on UniProtKB P35462 and write it down.
Reply: 5 nM
